# Test system: P388 leukemia ip, CD2F1 mice, survival T/C
# experiment: NCI In Vivo Anticancer Drug Screen. Data for tumor model P388 Leukemia (intraperitoneal) in CD2F1 (CDF1) mice
# measurement.context: endpoint: median survival time; dose: 400.0 mg/kg/injection; schedule: Q01DX001 (ip); vehicle: saline with Tween-80; higher = longer survival
Toxic doses and inconclusive results are not listed.
Each record here notes measured T/C.

CC12CCC3(CO3)CC1CCC1C2CCC2(C)C1CCC21CO1 (stereo unspecified)	88 % of control
CCC(c1ccc(OC)cc1)C(NCC(=O)NNC(=S)Nc1ccccc1)c1ccc(OC)cc1 (stereo unspecified)	108 % of control
CCOc1c(N2CCOCC2)c(=O)c1=O	90 % of control
CCCN1C(=O)C2C3C=CC(C2C1=O)C1C2C(=O)N(CCC)C(=O)C2C31 (stereo unspecified)	101 % of control
Cc1nc(N)c(C#N)c(-c2ccccc2)c1-c1ccccc1	106 % of control
CC(C)N(c1ccc(O)c2ccccc12)C(C)C	95 % of control
O=C(Cc1ccccc1)NCCN1CCNCC1	96 % of control
Cc1ccc(N=Nc2c(-c3ccccc3)nn(C(N)=S)c2C)cc1	103 % of control

Task item: Please report the recorded T/C for CCOC(=O)Cc1cc(O)c(C(=O)OCC)c(O)c1C(=O)OCC .
Reply: 99 % of control

Task item: Please report the recorded T/C for COC(=O)C(=O)c1cc(=O)[nH]c(NC(C)=O)n1 .
Reply: 107 % of control

Task item: Please report the recorded T/C for O=C1Nc2c(ccc3c2NCCC3)C2CCCC12 (stereo unspecified) .
Reply: 90 % of control
